# targetEntity: Prostaglandin G/H synthase 2 (Homo sapiens)
# Sequence (P35354 whole entry): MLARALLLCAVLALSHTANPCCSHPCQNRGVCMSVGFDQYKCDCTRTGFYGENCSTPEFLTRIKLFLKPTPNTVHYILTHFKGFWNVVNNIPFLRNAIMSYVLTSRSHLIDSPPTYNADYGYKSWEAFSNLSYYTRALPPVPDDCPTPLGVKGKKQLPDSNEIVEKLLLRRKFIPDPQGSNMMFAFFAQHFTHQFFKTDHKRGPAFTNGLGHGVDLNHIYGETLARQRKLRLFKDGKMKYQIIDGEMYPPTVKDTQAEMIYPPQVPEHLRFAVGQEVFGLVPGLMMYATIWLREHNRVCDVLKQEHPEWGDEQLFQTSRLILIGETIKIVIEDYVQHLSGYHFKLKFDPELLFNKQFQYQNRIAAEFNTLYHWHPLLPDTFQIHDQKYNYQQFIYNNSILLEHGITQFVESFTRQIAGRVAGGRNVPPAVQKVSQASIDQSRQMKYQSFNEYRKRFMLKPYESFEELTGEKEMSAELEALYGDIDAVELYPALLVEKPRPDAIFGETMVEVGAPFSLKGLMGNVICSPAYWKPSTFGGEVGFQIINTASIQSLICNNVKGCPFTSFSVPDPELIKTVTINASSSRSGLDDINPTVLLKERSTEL
# assayProcedure: Inhibition of human recombinant COX2 expressed in insect cell expression system using TMPD and arachidonic acid as substrate incubated for 1 min prior to substrate addition by spectrophotometry
pIC50: −log10 of the molar value.
attributeMeasured: pIC50

1. Cc1ccc2oc(=O)n(Cc3cn(-c4ccc(Br)cc4)nn3)c2c1 :: 5.56
2. Cc1ccc2c(c1)oc(=O)n2Cc1cn(-c2ccccc2Cl)nn1 :: 5.44
3. O=c1oc2ccc(Cl)cc2n1Cc1cn(-c2ccccc2F)nn1 :: 5.51

P: Cc1ccc2c(c1)oc(=O)n2Cc1cn(-c2ccc(Cl)cc2)nn1
Q: Cc1ccc2c(c1)oc(=O)n2Cc1cn(-c2ccc(F)cc2)nn1
Q: I'm curious, which of these has a smaller pIC50 number: P or Q ? Record your answer as the label of the chosen record.
Result: P
(P: 5.25, Q: 5.62)

###

# Species: Homo sapiens
# assayProcedure: Selectivity index, ratio of IC50 for COX1 (unknown origin) to IC50 for human recombinant COX2
attributeMeasured: Ratio IC50

A: O=c1oc2ccc(Cl)cc2n1Cc1cn(-c2ccccc2F)nn1
B: Cc1ccc2c(c1)oc(=O)n2Cc1cn(-c2ccc(Cl)cc2)nn1
Q: Which of the two items, A and B , has the greater recorded Ratio IC50? Choose, then provide that item's label.
Result: B

a: O=c1oc2ccc(Cl)cc2n1Cc1cn(-c2ccc(Cl)cc2)nn1
b: Cc1ccc2c(c1)oc(=O)n2Cc1cn(-c2ccc(F)cc2)nn1
Q: Which gives the smaller Ratio IC50 number: a or b ? Response format: the label of the selected entry.
Result: a
(a: 41.2, b: 72.8)

###

# Tested on: Rattus norvegicus
# assayProcedure: Antiinflammatory activity in albino Wistar rat assessed as inhibition of carrageenan-induced hind paw edema at 0.05 mmol/kg, po administered 1 hr prior to carrageenan challenge measured after 5 hrs by plethysmometric analysis relative to control
# Format: functional
attributeMeasured: inhibition in vivo at 50 µmol/kg (%)
// units = %; emit number, no label

Sample records with inhibition in vivo at 50 µmol/kg:
1) Cc1ccc2c(c1)oc(=O)n2Cc1cn(-c2ccccc2Cl)nn1 :: 72.9
2) COc1ccc2c(c1)c(CC(=O)O)c(C)n2C(=O)c1ccc(Cl)cc1 [INDOMETHACIN] :: 82.2

Q: I'd like to know its inhibition in vivo at 50 µmol/kg. The compound in question is `Cc1ccc2c(c1)oc(=O)n2Cc1cn(-c2ccc(F)cc2)nn1`
Result: 80.6

###

Reported Time values for the following compounds.
# Test system: Rattus norvegicus
# assayProcedure: Antinociceptive activity in albino Wistar rat assessed as thermal-stimulus induced tail flick latency at 0.05 mmol/kg, po after 120 mins (reference value: 2.38 +/- 0.11 mins)
# Format: functional
Numeric only. Scale: min

Study these solved cases before continuing.
1) Cc1ccc2oc(=O)n(Cc3cn(-c4ccc(Br)cc4)nn3)c2c1 :: 2.88
2) COc1ccc2c(c1)c(CC(=O)O)c(C)n2C(=O)c1ccc(Cl)cc1 :: 3.54
3) Cc1ccc2c(c1)oc(=O)n2Cc1cn(-c2ccccc2Cl)nn1 :: 2.56
4) Cc1ccc2c(c1)oc(=O)n2Cc1cn(-c2ccc(Cl)cc2)nn1 :: 3.34
5) O=c1oc2ccc(Cl)cc2n1Cc1cn(-c2ccccc2F)nn1 :: 2.64

Then this compound:
Q: Name the reported Time value associated with the compound `Cc1ccc2c(c1)oc(=O)n2Cc1cn(-c2ccc(F)cc2)nn1`
Result: 3.36

Data provenance: ChEMBL document CHEMBL3085681
